# System: Tov112D
# Protocol Text: Primary qHTS to identify gynecologic anti-cancer compounds using libraries of approved drugs and bioactive compounds (AID 1345084); further: nearly all actives have a fitted effect of over 55% in size
# Assay Context: Gynecologic cancer cell panel viability, ATPlite luminescence, 48 h; series mostly up to 57.5 µM
Results filed as inconclusive are left out. Active and inactive are the calls of the source. The call rests on the fitted dose curve; in most records, active means well fitted cell-killing curve with a large enough effect; inconclusive means small, poorly fitted or top-dose-only effect, or effect the other way; inactive means flat fitted curve, though single readings scatter.
Permitted responses: Y for active, N for inactive

So what was the verdict on CC(=O)O[C@@H]1C[C@@]23C[C@@]24CC[C@H](O[C@@H]2OC[C@H](O)[C@H](O)[C@H]2O)C(C)(C)[C@@H]4CC[C@H]3[C@]2(C)[C@@H](O)C34O[C@H](C[C@@H](C)[C@@H]3[C@@]12C)[C@@H](C(C)(C)O)O4 in this test?
N

So what was the verdict on CCOc1ccc(S(=O)(=O)N2CCCCCC2)c2ccccc12 in this test?
N

So what was the verdict on C[C@H](Oc1cc(-c2cnn(C3CCNCC3)c2)cnc1N)c1c(Cl)ccc(F)c1Cl in this test?
N

So what was the verdict on CCOC(=O)CCNc1cc(N2CCc3ccccc3CC2)nc(-c2cccnc2)n1 in this test?
N

So what was the verdict on CCOc1ccc(-n2c([C@@H](C)N(Cc3cccnc3)C(=O)Cc3ccc(OC(F)(F)F)cc3)nc3ncccc3c2=O)cc1 in this test?
N

So what was the verdict on COC(=O)c1ccc2c(c1)[nH]c1ncnc(NCCCN3CCCCC3)c12 in this test?
N

So what was the verdict on C[C@H](Nc1ncnc2nc[nH]c12)c1cc2cccc(Cl)c2c(=O)n1-c1ccccc1 in this test?
N

So what was the verdict on Nc1nc2c(c(N3CC[C@@H](N)C3)n1)CCCc1ccccc1-2 in this test?
N

So what was the verdict on CC(O)(C(=O)C1CC1(CO)COC1OC(CO)C(O)C(O)C1O)C1C(O)CC2C3CC=C4CC(O)CC(O)C4(C)C3C(O)CC21C (stereo not drawn) in this test?
Y

So what was the verdict on C=CCCN1CCC2(CC1)CN(C(=O)c1c(F)cccc1F)c1ccc(Cl)cc12 in this test?
N

So what was the verdict on C[C@@H]1C[C@H]2O[C@@]3(O[C@@H]2C(C)(C)O)C(O)[C@@]2(C)C4CCC5C(C)(C)[C@@H](O[C@H]6OC[C@H](O)[C@@H](O)[C@@H]6O)CC[C@@]56C[C@@]46CC[C@]2(C)C13 (stereo partly drawn) in this test?
N

So what was the verdict on CN(C)CCC(CSc1ccccc1)Nc1ccc(S(=O)(=O)NC(=O)c2ccc(N3CCN(Cc4ccccc4-c4ccc(Cl)cc4)CC3)cc2)cc1[N+](=O)[O-] (stereo not drawn) in this test?
N

So what was the verdict on COc1ccc(S(=O)(=O)n2cnc3cc(C)c(C)cc32)cc1 in this test?
N

So what was the verdict on CC(C)n1c(=O)c(C(=O)NC2CC3CCC(C2)N3C[C@@H](O)CN(C)S(C)(=O)=O)cc2ccccc21 (stereo partly drawn) in this test?
N

So what was the verdict on CC1=CC2/C=C(\C)CCC(O)C/C=C/C(=O)OC23C(=O)NC(CC(C)C)C3C1C (stereo not drawn) in this test?
N

So what was the verdict on COc1cc(N(C)CCN(C)C)c(N)cc1Nc1nccc(-c2cn(C)c3ccccc23)n1 in this test?
N

So what was the verdict on COC1C(OC(=O)/C=C/C=C/C=C/C=C/C(=O)O)CCC2(CO2)C1C1(C)OC1CC=C(C)C (stereo not drawn) in this test?
N

So what was the verdict on COc1c(F)cccc1C(=O)N1C[C@@H](C)CC[C@H]1CNc1ccc(Br)cn1 in this test?
N

So what was the verdict on O=C(NCCN1CCN(c2cccc3c2OCCO3)CC1)c1ccc(F)cc1 in this test?
N

So what was the verdict on C=C1/C(=C/C=C2\CCC[C@]3(C)[C@@H]([C@H](C)CC[C@@H](O)C(C)(C)O)CC[C@@H]23)C[C@@H](O)C[C@@H]1O in this test?
N

So what was the verdict on COc1ccc(Sc2ccc(NC(=O)c3ccccc3Cl)cc2C#N)cc1 in this test?
N

So what was the verdict on O=C(Nc1ccn(Cc2ccc(O)cc2C(F)(F)F)n1)c1c(F)cccc1F in this test?
N

So what was the verdict on OC1(CN2CCC(COc3noc4cccc(O[C@@H]5CCOC5)c34)CC2)CCOCC1 in this test?
N

So what was the verdict on COc1cc(OC)c(NC(=O)c2ccc(Cc3cc4c(cc3C)C(C)(C)CCC4(C)C)o2)c(OC)c1 in this test?
N

So what was the verdict on CCCOc1ccc(CCc2nc3cc(-c4c(C)noc4C)ccc3n2CCN2CCOCC2)cc1 in this test?
N

So what was the verdict on CCNC(=O)c1noc(-c2cc(Cl)c(O)cc2O)c1-c1ccc(OC)cc1 in this test?
Y

So what was the verdict on COc1ccc(Cl)c(Nc2ncnc3cc(OCC4CCN(C)CC4)c(OC)cc23)c1 in this test?
N

So what was the verdict on C=CC(=O)Nc1cccc(Nc2nc(Nc3ccc(OCCOC)cc3)ncc2F)c1 in this test?
Y

So what was the verdict on CC(=O)OC(C)(C)/C=C/C(=O)[C@](C)(O)[C@H]1C(O)C[C@@]2(C)[C@@H]3CC=C4[C@@H](C=C(O[C@@H]5O[C@H](CO)[C@@H](O)[C@H](O)[C@H]5O)C(=O)C4(C)C)[C@]3(C)C(=O)C[C@]12C (stereo partly drawn) in this test?
N

So what was the verdict on CCN1CCN(Cc2ccc(C(=O)Nc3ccc(C)c(Oc4ccc5c(c4)CC(=O)N5)c3)cc2C(F)(F)F)CC1 in this test?
N

So what was the verdict on C=C1CC[C@@H]2[C@](C)(CO)[C@H](O)CC[C@@]2(C)[C@@H]1C/C=C1/C(=O)OCC1OC(=O)/C(=C/CO)C(O)C[C@@H]1C(=C)CC[C@@H]2[C@](C)(CO)[C@H](O)CC[C@]21C (stereo partly drawn) in this test?
N

So what was the verdict on Cc1cc(-c2cc(OC(=O)c3ccccc3)ccc2Cl)cc2nnc(Nc3ccc(OCCN4CCCC4)cc3)nc12 in this test?
N

So what was the verdict on C/C(=C/CO)CCC1C(C)CCC2C(C)(C)CCCC12C (stereo not drawn) in this test?
N
